Biological target: Ecm22 (UniProt Q05958)
Sequence: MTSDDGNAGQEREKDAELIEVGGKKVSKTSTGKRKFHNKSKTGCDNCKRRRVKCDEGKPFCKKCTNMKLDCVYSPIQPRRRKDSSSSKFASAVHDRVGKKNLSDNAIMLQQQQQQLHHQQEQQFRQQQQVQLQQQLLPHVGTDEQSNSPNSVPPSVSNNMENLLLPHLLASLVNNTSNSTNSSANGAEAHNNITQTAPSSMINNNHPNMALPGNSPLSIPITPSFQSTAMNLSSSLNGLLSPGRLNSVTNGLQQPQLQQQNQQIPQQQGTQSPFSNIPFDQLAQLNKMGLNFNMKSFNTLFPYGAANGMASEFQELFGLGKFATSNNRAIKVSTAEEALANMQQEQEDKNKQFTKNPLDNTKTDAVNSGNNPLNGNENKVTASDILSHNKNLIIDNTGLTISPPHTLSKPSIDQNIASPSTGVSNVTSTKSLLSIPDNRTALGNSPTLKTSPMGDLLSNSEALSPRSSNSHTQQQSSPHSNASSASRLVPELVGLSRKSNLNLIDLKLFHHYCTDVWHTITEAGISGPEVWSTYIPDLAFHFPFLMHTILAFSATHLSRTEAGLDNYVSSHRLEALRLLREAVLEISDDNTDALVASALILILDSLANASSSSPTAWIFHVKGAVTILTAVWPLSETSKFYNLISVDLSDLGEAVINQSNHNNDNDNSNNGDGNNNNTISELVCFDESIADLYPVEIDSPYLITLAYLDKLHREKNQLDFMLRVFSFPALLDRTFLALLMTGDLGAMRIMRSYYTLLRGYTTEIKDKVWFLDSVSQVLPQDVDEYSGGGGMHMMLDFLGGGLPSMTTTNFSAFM
Test: PBM E-score (8-mer binding enrichment) (E-score (-0.5 to 0.5)); higher = stronger / more preferred TF binding
Conditions: protein concentration: 200 nM; construct: GST-full length
The full ranking holds about 33,000 sequences; the median of “E-score (-0.5 to 0.5)” is about -0.041, and the highest 2% start at about 0.37. The list comes from a sample in which the highest values are over-represented; it also holds close analogues and randomly drawn sequences.
Property: PBM E-score; scope: individual sequences
quantity: PBM E-score

[[record]]
residue_string = "GCAGTAAA"
result = -0.0139

[[record]]
residue_string = "CATACGCA"
result = 0.216

[[record]]
residue_string = "CGCGATCA"
result = 0.179

[[record]]
residue_string = "CCACGAGA"
result = -0.117

[[record]]
residue_string = "TGCAAGAA"
result = -0.0877

[[record]]
residue_string = "CCTTTTCC"
result = 0.055

[[record]]
residue_string = "CTAAACAG"
result = -0.109

[[record]]
residue_string = "CGACGAGA"
result = 0.08

[[record]]
residue_string = "ACGCCAGG"
result = 0.0457

[[record]]
residue_string = "CTACGATC"
result = 0.325

[[record]]
residue_string = "GAGTATAC"
result = 0.286

[[record]]
residue_string = "GACAGGCA"
result = -0.0606

[[record]]
residue_string = "GCTTTTGA"
result = -0.115

[[record]]
residue_string = "CCGTATGC"
result = 0.268

[[record]]
residue_string = "ACGTATGA"
result = 0.17

[[record]]
residue_string = "CGACGAGC"
result = 0.162

[[record]]
residue_string = "CGAGTACA"
result = 0.246

[[record]]
residue_string = "AAGTTTGT"
result = -0.176

[[record]]
residue_string = "AGACGATG"
result = 0.00668

[[record]]
residue_string = "AGTAGGCC"
result = 0.00266

[[record]]
residue_string = "CCGAGCCC"
result = 0.0573

[[record]]
residue_string = "CCCCGAAC"
result = -0.0375

